System: UniProtKB P35462 | Read-out: Ki | Origin: multiple publications
Sequence (P35462 whole entry): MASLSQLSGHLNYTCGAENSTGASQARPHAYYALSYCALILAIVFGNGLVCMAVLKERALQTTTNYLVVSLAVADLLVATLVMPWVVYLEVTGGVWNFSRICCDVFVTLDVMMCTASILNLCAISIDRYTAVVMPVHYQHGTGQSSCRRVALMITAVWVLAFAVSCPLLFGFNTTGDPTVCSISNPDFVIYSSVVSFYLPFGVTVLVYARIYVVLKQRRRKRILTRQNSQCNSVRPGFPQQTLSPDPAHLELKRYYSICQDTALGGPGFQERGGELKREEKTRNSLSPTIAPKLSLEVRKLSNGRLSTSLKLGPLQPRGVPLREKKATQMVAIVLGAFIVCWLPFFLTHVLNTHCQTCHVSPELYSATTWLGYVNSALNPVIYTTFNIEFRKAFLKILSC
Answer with the number, then the unit.

Recorded results for 3 molecules are shown here.
COc1ccccc1N1CC2(CN(CCCSc3nnc(-c4ccccc4)n3C)C2)C1 :: 833 nM
COc1ccccc1N1CCN(CCCNC(=O)NN(Cc2cccc(F)c2)c2ccc(F)cc2)CC1 :: 88 nM
Cc1ccc2c3c(ccc2n1)OC[C@H](CN1CCN(c2ccc4cc(C#N)ccc4n2)CC1)O3 :: 1320 nM

Proceeding to the next molecule to report its Ki.
(Q) Any idea what Ki was measured for Cc1ccc2c(OCCN3CCC(Cc4ccc5c(c4F)NC(=O)CO5)CC3)cc(F)cc2n1 ?
(A) 794 nM

====

// note: Ki values for UniProtKB P35462 were reported in different studies

COc1ccc(-c2ccc(C(=O)N3CCN(C(=O)c4ccc5cc[nH]c5c4)[C@@H](C)C3)cc2)cc1 :: > 10000 nM
C[C@H]1CN(C(=O)c2ccc(-c3ccccc3F)cc2)CCN1C(=O)c1ccc2cc[nH]c2c1 :: > 10000 nM
c1ccc(CNCCOc2cccc3nc[nH]c23)cc1 :: 67.2 nM

# per-item lookup of Ki; items listed below
1. CCc1cc(Cl)c(OC)c(C(=O)NCC2CCN(C)C2)c1O (configuration not stated)
2. CCN(CC)[C@H]1[C@H](CO)[C@@H]2CN(Cc3ccccc3)[C@@H](c3ccccn3)[C@@H]21
3. O=C(CCc1cn(CCCCCCCCCCn2cc(CCC(=O)OC3(c4ccc(Cl)cc4)CCN(CCCC(=O)c4ccc(F)cc4)CC3)nn2)nn1)OC1(c2ccc(Cl)cc2)CCN(CCCC(=O)c2ccc(F)cc2)CC1
4. Cc1nn2c(-c3ccccc3)cccc2c1CN1CCN(c2ccc(Cl)cc2)CC1

(A)
["100 nM", "8800 nM", "5.9 nM", "3100 nM"]

Parameters: items (list). Returns: Ki for each item.
1. N#Cc1ccc2c(c1)CCN(CC[C@H]1CC[C@H](NC(=O)/C=C/c3ccc(F)cc3)CC1)C2
2. O=C(NC/C=C/CN1CCN(c2cccc(Cl)c2Cl)CC1)c1ccc(-c2ccccn2)cc1
3. COc1ccccc1N1CCN(CCCCNC(=O)C2CCCCC2)CC1
4. CCCN1CCc2cccc3c2C1Cc1cccc(OCCCn2cc(CCCCN4CCN(c5ccccc5OC)CC4)nn2)c1-3 (racemic)
5. CC(=O)c1ccc(C(=O)Nc2ccc(CCN3CC4COc5ccc(C#N)cc5C4C3)cc2)cc1 (configuration not stated)
6. O=C(NCCCCN1CCN(c2ccccc2)CC1)c1ccccn1

(A)
["3.16 nM", "0.316 nM", "0.9 nM", "8.14 nM", "0.794 nM", "144 nM"]

Record Ki per entry; entries follow.
1. CCCN1CCc2cccc3c2C1Cc1cc2sc(N)nc2cc1-3 (racemic)
2. Clc1cccc(N2CCN(CCCCOc3ccn4nccc4c3)CC2)c1Cl
3. O=c1[nH]c2ccc3c(c2[nH]1)O[C@H](CNCc1ccccc1)CC3
4. CCCN1C[C@H](OCCCCOc2ccc3c(c2)NC(=O)CC3)C[C@H]1CNC(=O)c1c(O)c(CC)cc(Cl)c1OC
5. CCCN(CCC)C1COc2c(ccc3sc(N)nc23)C1 (configuration not stated)
6. Cn1ncc2cc(CN3CCC(OCc4cccc(C(F)(F)F)c4)CC3)ccc21

(A)
1: 2110 nM; 2: 7 nM; 3: 81 nM; 4: 0.444 nM; 5: 1400 nM; 6: 923 nM

List Ki for every entry below, keeping the order given.
1. O=C(NCCCCN1CCO[C@@H]2c3ccccc3OC[C@H]21)c1ccc([N+](=O)[O-])cc1 (racemic)
2. COc1ccccc1OCCNC[C@H](O)c1ccc(O)c(O)c1
3. COc1ccc(S(=O)(=O)Nc2ccccc2)cc1-c1ccc(CN2CCCCCC2c2ccccc2)[nH]1 (configuration not stated)

(A)
33.9 nM
2200 nM
79.4 nM

Look at each molecule and report its Ki.
1. COc1ccccc1N1CCN(CCCCN2C(=O)c3ccccc3C2=O)CC1
2. c1ccc(CN2CCC(NCc3csc(-c4ccccc4)n3)CC2)cc1
3. COc1ccccc1N1CCN(CCCCNC(=O)c2ccc(-c3cn(Cc4ccc(-c5ccc(Cn6cc(-c7ccc(C(=O)NCCCCN8CCN(c9ccccc9OC)CC8)cc7)nn6)cc5)cc4)nn3)cc2)CC1
4. COc1cccc(/C=C/C(=O)N[C@H]2CC[C@H](CCN3CCc4ccc(OS(C)(=O)=O)cc4CC3)CC2)c1

(A)
38 nM
2300 nM
70 nM
2 nM

(Q) Recorded Ki for CCCN(CCC)[C@@H]1CCn2cc(C)cc2C1 , please?
(A) 1300 nM
